tgt: Alpha-1A adrenergic receptor (Homo sapiens, UniProt P35348)
Sequence (P35348 whole entry): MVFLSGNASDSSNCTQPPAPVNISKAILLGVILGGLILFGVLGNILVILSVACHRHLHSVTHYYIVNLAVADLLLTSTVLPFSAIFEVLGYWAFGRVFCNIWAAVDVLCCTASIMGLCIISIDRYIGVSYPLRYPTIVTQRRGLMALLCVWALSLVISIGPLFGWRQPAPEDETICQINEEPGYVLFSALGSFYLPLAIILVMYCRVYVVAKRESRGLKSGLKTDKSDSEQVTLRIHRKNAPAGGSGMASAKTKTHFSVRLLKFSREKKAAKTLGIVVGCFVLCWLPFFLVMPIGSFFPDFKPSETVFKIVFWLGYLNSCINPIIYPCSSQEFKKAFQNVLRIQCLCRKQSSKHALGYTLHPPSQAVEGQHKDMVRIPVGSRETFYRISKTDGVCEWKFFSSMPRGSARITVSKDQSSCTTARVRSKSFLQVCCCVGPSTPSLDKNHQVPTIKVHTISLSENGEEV
pKi: −log10 of the molar value.
propertyMeasured: pKi

compound	pKi
CC1=C(C#N)C(c2ccc([N+](=O)[O-])cc2)C(C(=O)NCCCN2CCC(c3ccccc3)(c3ccccc3)CC2)=C(C)N1 (centres undefined)	7.25

P = CO/C(O)=C1\C(C)=NC(C)=C(C(=O)NCCCN2CCC(c3ccccc3)CC2)C1c1ccc(Cl)c([N+](=O)[O-])c1 (centres undefined)
Q = CO/C(O)=C1\C(C)=NC(C)=C(C(=O)NCCCN2CCC(c3ccccc3)(c3ccccc3)CC2)C1c1ccc(C#N)cc1 (centres undefined)
R = CO/C(O)=C1\C(C)=NC(C)=C(C(=O)NCCCN2CCC(c3ccccc3)CC2)C1c1ccc([N+](=O)[O-])cc1 (centres undefined)
stdin: Let's sort these by pKi, smallest first. Go ahead? Field: ranking. Enter the labels in the order requested.
stdout: Q, P, R

====

Let's go through some Ki measurements on Alpha-2B adrenergic receptor (Homo sapiens) together.
Sequence (P18089 whole entry): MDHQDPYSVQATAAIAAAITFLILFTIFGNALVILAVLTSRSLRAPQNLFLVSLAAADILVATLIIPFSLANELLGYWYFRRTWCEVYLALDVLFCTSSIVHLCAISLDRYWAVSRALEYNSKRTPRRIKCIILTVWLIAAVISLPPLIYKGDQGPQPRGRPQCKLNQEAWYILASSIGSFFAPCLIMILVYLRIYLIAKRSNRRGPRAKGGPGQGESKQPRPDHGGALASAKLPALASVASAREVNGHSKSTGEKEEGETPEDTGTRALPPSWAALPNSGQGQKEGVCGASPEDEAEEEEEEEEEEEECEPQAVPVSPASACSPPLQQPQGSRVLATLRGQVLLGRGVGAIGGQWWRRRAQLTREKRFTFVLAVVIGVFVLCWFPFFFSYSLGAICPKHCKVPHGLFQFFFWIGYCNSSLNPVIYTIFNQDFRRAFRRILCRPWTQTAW
propertyMeasured: Ki (nM)

Some compounds with recorded Ki:
compound	Ki (nM)
CO/C(O)=C1\C(C)=NC(C)=C(C(=O)NCCCN2CCC(c3ccccc3)(c3ccccc3)CC2)C1c1ccc([N+](=O)[O-])c(OC)c1 (stereo not drawn)	575
CNC(=O)C1=C(C)NC(C)=C(C(=O)NCCCN2CCC(c3ccccc3)(c3ccccc3)CC2)C1c1ccc([N+](=O)[O-])cc1 (stereo not drawn)	933
CO/C(O)=C1\C(C)=NC(C)=C(C(=O)NCCCN2CCC(c3ccccc3)(c3ccccc3)CC2)C1c1ccc(Cl)cc1 (stereo not drawn)	2290

a = CC1=C(C(N)=O)C(c2ccc3c(c2)OCO3)C(C(=O)NCCCN2CCC(c3ccccc3)(c3ccccc3)CC2)=C(C)N1 (stereo not drawn)
b = CO/C(O)=C1\C(C)=NC(C)=C(C(=O)NCCCCN2CCC(c3ccccc3)(c3ccccc3)CC2)C1c1ccc([N+](=O)[O-])cc1 (stereo not drawn)
stdin: Lab log: flag the item ( a or b ) with the smaller Ki figure. Record your answer as the label of the chosen record.
stdout: a
(a: 204 nM, b: 372 nM)

====

tgt: Alpha-1B adrenergic receptor (Homo sapiens, UniProt P35368)
Sequence (P35368 whole entry): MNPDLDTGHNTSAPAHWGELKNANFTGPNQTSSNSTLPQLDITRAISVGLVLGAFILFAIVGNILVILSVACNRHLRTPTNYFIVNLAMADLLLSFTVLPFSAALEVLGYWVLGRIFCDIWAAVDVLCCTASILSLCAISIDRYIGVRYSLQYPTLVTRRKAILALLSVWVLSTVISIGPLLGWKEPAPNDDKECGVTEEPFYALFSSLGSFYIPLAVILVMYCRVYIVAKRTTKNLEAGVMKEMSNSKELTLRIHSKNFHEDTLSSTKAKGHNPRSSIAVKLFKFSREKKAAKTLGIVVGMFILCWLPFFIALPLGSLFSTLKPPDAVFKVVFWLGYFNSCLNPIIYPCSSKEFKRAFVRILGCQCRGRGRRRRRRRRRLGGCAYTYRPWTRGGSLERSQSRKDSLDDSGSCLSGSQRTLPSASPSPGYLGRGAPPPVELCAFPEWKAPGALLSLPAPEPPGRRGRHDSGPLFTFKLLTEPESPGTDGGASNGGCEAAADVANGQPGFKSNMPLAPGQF
propertyMeasured: Ki (nM)

compound	Ki, nM
CO/C(O)=C1\C(C)=NC(C)=C(C(=O)NCCCN2CCC(c3ccccc3)(c3ccccc3)CC2)C1c1ccc2c(c1)OCO2 (centres undefined)	224
CO/C(O)=C1\C(C)=NC(C)=C(C(=O)NCCCN2CCC(c3ccccc3)(c3ccccc3)CC2)C1c1ccc(OC)cc1 (centres undefined)	204
CC1=C(C#N)C(c2ccc([N+](=O)[O-])cc2)C(C(=O)NCCCN2CCC(c3ccccc3)(c3ccccc3)CC2)=C(C)N1 (centres undefined)	166
CNC(=O)C1=C(C)NC(C)=C(C(=O)NCCCN2CCC(c3ccccc3)(c3ccccc3)CC2)C1c1ccc([N+](=O)[O-])cc1 (centres undefined)	490
